Heads up, these molecules all have Ki values measured for Sodium-dependent dopamine transporter (Rattus norvegicus).
Readout Name: Ki (nM)

>>> numeric_readout("CN(C)CCCC1(c2ccc(F)cc2)OCc2cc(/C=C/c3ccc(Cl)cc3)ccc21 (stereo not given)")
2000
>>> numeric_readout("CN(C)CCC[C@@]1(c2ccc(F)cc2)OCc2cc(Br)ccc21")
2250
>>> numeric_readout("CN(C)CCC[C@]1(c2ccc(F)cc2)OCc2cc(/C=C/c3ccccc3)ccc21")
541
>>> numeric_readout("CN(C)CCCC1(c2ccc(F)cc2)OCc2cc(I)ccc21 (stereo not given)")
1350
>>> numeric_readout("CN(C)CCCC1(c2ccc(F)cc2)OCc2cc(-c3ccc(Cl)c(Cl)c3)ccc21 (stereo not given)")
2510

###

- Organism: Rattus norvegicus
- Protocol Summary: Selectivity ratio of Ki for DAT in rat caudate-putamen to Ki for SERT in rat brain stem
- Assay type: tissue-based
Entries annotated with measured Ratio Ki
Readout Name: Ratio Ki

>>> numeric_readout("CN(C)CCCC1(c2ccc(F)cc2)OCc2cc(/C=C/c3ccc(Cl)cc3)ccc21 (centres undefined)")
60
>>> numeric_readout("CN(C)CCC[C@@]1(c2ccc(F)cc2)OCc2cc(Br)ccc21")
2450
>>> numeric_readout("CN(C)CCCC1(c2ccc(F)cc2)OCc2c(Br)cccc21 (centres undefined)")
56
>>> numeric_readout("CN(C)CCCC1(c2ccc(F)cc2)OCc2c(-c3cccc(F)c3)cccc21 (centres undefined)")
60

###

Measured pKi on Transporter (Rattus norvegicus) follows.
Sequence (Q63380 whole entry): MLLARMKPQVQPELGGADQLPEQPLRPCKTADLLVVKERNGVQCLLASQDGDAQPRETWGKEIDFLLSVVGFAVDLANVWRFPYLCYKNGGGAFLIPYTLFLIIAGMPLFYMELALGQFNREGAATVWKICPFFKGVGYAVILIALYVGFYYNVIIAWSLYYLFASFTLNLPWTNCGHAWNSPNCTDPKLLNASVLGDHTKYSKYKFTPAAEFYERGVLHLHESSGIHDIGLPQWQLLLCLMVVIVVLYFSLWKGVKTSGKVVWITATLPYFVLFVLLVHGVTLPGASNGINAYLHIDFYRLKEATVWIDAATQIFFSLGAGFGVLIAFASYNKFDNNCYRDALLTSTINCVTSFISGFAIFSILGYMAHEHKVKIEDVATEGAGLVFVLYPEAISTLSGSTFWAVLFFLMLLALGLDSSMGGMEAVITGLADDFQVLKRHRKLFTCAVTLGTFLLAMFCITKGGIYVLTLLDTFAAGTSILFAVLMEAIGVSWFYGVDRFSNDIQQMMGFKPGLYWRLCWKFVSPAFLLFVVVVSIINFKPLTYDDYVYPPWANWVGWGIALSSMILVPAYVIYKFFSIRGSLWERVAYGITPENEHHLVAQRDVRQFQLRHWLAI
pKi: −log10 of the molar value.
Readout Name: pKi

>>> numeric_readout("CN(C)CCCC1(c2ccc(F)cc2)OCc2cc(-c3cccc(C#N)c3)ccc21 (stereo not given)")
5.30
>>> numeric_readout("CN(C)CCCC1(c2ccc(F)cc2)OCc2cc(/C=C/c3ccc(Cl)cc3)ccc21 (stereo not given)")
4.60
>>> numeric_readout("CN(C)CCCC1(c2ccc(F)cc2)OCc2c(Br)cccc21 (stereo not given)")
5.21
>>> numeric_readout("CN(C)CCCC1(c2ccc(F)cc2)OCc2c(-c3ccccc3)cccc21 (stereo not given)")
5.15
>>> numeric_readout("CN(C)CCCC1(c2ccc(F)cc2)OCc2cc(-c3cccc(F)c3)ccc21 (stereo not given)")
5.38

###

Catalogue of molecules with associated Ratio Ki
- Species on record: Rattus norvegicus
- Protocol Summary: Selectivity ratio of Ki for DAT in rat caudate-putamen to Ki for SERT in rat brain stem
- Type: tissue-based
Readout Name: Ratio Ki

>>> numeric_readout("CN(C)CCCC1(c2ccc(F)cc2)OCc2cc(-c3cccc(Cl)c3)ccc21 (stereo not given)")
23
>>> numeric_readout("CN(C)CCCC1(c2ccc(F)cc2)OCc2cc(/C=C/c3ccccc3)ccc21 (racemic)")
90
>>> numeric_readout("CN(C)CCCC1(c2ccc(F)cc2)OCc2c(/C=C/c3ccccc3)cccc21 (stereo not given)")
25
>>> numeric_readout("CN(C)CCCC1(c2ccc(F)cc2)OCc2cc(-c3cccc(C#N)c3)ccc21 (stereo not given)")
110
>>> numeric_readout("CN(C)CCCC1(c2ccc(F)cc2)OCc2cc(-c3ccc(Cl)c(Cl)c3)ccc21 (stereo not given)")
18
>>> numeric_readout("CN(C)CCC[C@]1(c2ccc(F)cc2)OCc2cc(Br)ccc21")
57
>>> numeric_readout("CN(C)CCC[C@@]1(c2ccc(F)cc2)OCc2cc(/C=C/c3ccccc3)ccc21")
171
>>> numeric_readout("CN(C)CCCC1(c2ccc(F)cc2)OCc2c(-c3ccccc3)cccc21 (stereo not given)")
107
>>> numeric_readout("CN(C)CCC[C@]1(c2ccc(F)cc2)OCc2cc(/C=C/c3ccccc3)ccc21")
4.79
>>> numeric_readout("CN(C)CCCC1(c2ccc(F)cc2)OCc2cc(-c3ccccc3)ccc21 (stereo not given)")
45
